Can you tell me MIC for the items I'm about to list?
test system: Staphylococcus aureus; test: In vitro antibacterial activity of A5177 strain of Gram positive bacteria Staphylococcus aureus; format: functional
Give bare numbers, in µg/mL.

Could I get MIC for every one of these entries?
1. CC[C@H]1OC(=O)/C(C)=C/[C@H](C)[C@@H](O[C@@H]2O[C@H](C)C[C@H](N(C)C)[C@H]2O)[C@@](C)(OC)C[C@@H](C)C(=O)[C@H](C)[C@H]2N(NC/C=C/c3ccc(N)cc3)C(=O)O[C@]12C
2. CC[C@H]1OC(=O)/C(C)=C/[C@H](C)[C@@H](O[C@@H]2O[C@H](C)C[C@H](N(C)C)[C@H]2O)[C@@](C)(OC)C[C@@H](C)C(=O)[C@H](C)[C@H]2N(NCc3ccc(N(C)C)c4ccccc34)C(=O)O[C@]12C

OUT:
1. 0.2
2. 3.1
